Please provide measured growth for the entries that follow.
System: K-562 leukemia
assay.details: NCI-60 one-dose screen, 48 h (100 = growth as untreated, 0 = no growth, -100 = all killed)
condition.info: 10 µM unless noted
Description: Cells are grown in 96 well plates and exposed to the test compound for 48 hours. Compounds are tested at a single concentration, which is 10^-5 M for most compounds. The reported endpoint is percent growth (GI% or GIPRCNT), where numbers from 0 - 100% represent growth inhibition, and numbers from -100% - 0 represent cell death. For example, a value of 40 represents 60% growth inhibition. A value of 0 means no net growth occurred over the course of the experiment. […]
This is part of a sample that, as a whole, favours compounds with a hit. Of some 83,000 tested, about 20% had one in any assay.
Your answer is read as %, so omit the unit and give the number.

Please look at this compound and report its growth: C=CCOC(=O)C(Br)CC (stereo not given)
107

Please look at this compound and report its growth: CC(=O)OC1CC2(O)C(CCC3(C)C(c4ccc(=O)oc4)CCC32O)C2(C)CCC(OC3OC(CO)C(O)C(O)C3O)C=C12 (stereo not given)
-30.4

Please look at this compound and report its growth: "COC(=O)C1=CO[C@@H](C)[C@@H]2CN3CCc4c([nH]c5cc(OC)ccc45)[C@@H]3C[C@H]12"
97.6

Please look at this compound and report its growth: "C/C=C(/C)C(=O)O[C@H]1CC[C@@]2(C)[C@@H]3CC[C@H]4[C@]5(O)C[C@H](O)[C@@]6(O)[C@@H](CN7C[C@@H](C)CC[C@H]7[C@@]6(C)O)[C@]5(O)C[C@@]42O[C@@]13O"
136

Please look at this compound and report its growth: "CC1(C)S[C@H]2CC[C@H]3OC(=O)[C@@H]1N23"
111

Please look at this compound and report its growth: "O=CC1(c2ccccc2)CCN(Cc2ccccc2)CC1"
105

Please look at this compound and report its growth: "C/C(=C(\c1ccc(OCCN2CCOCC2)cc1)c1ccc(OC(=O)Cc2ccccc2)cc1)c1ccc(Cl)cc1"
7.15

Please look at this compound and report its growth: ClC1OC(Cl)(Cl)C(Cl)(Cl)OC1(Cl)Cl (stereo not given)
98.1

Please look at this compound and report its growth: "CC1=C(C)C(=O)O[C@@H]([C@](C)(O)[C@]2(O)CC[C@@]3(O)[C@@H]4C[C@H]5O[C@]56CC=CC(=O)[C@]6(C)[C@H]4CC[C@]23C)C1"
3.63

Please look at this compound and report its growth: O=S(OO)c1cc(Cl)c(O)c(Cl)c1 (stereo not given)
107

Please look at this compound and report its growth: "C[C@]12CCc3sc(Nc4ccc(F)cc4F)nc3C1=CC[C@@H]1[C@@H]2CC[C@]2(C)C(=O)CC[C@@H]12"
2.15

Please look at this compound and report its growth: "CC1=CC(=Nc2ccc(N(CCCl)CCCl)cc2)C=C(C)C1=O"
17.4

Please look at this compound and report its growth: "CCCCn1c(=O)c(C(=O)NCc2ccccc2Cl)c(O)c2ccccc21"
42.3

Please look at this compound and report its growth: "N#CC(NC(=O)CCl)=C(Cl)Cl"
-23.6

Please look at this compound and report its growth: "O=[N+]([O-])c1ccc(OCc2ccc(S(=O)(=O)F)c(Cl)c2)c(Cl)c1"
99

Please look at this compound and report its growth: CC(Oc1ccc(-c2ccccc2)cc1)C(=O)O (stereo not given)
112

Please look at this compound and report its growth: "CC1(C)C=Cc2c(ccc3c2[N+]([O-])=C2C3=C[C@@]34NC(=O)[C@]5(CCCN5C3=O)C[C@@H]4C2(C)C)O1"
9.2

Please look at this compound and report its growth: CCCC(C)SP(=S)(SC(C)CCC)SC(C)CCC (stereo not given)
112

Please look at this compound and report its growth: "Nc1cccnc1"
105

Please look at this compound and report its growth: "CN(C)C(=S)SSC(=S)N(C)C"
105
